These data points were gathered from patent US10105357B2.

- System: PC3 (p53−) (Prostate Adenocarcinoma)
- Procedure details: Cell viability analysis, prostate cancer PC3
- Type: cell-based, human
- Test context: Homo sapiens, 72 h, drug 10 μM, 72 hours, WST-1, OD450 nm; read-out: cell viability (survival rate), PC3
Structures can show the parent of a compound that is named as a salt.
Could you mark each record satisfied if its viability at 10 µM falls strictly under 70%, and not satisfied if it equals or exceeds it?

Answered cases to consult:
CCCCCCCCCCCCCCCCO | not satisfied
CN1CCN(c2cc3c(cc2F)c(=O)c(C(=O)O)cn3-c2ccc(F)cc2)CC1 [Difloxacin HCl] | not satisfied
CC(C)CN(C[C@@H](O)[C@H](Cc1ccccc1)NC(=O)O[C@H]1CCOC1)S(=O)(=O)c1ccc(N)cc1 | not satisfied
CCCCC(CC)CNC(=N)NC(=N)NCCCCCCNC(=N)NC(=N)NCC(CC)CCCC (stereo not shown) [Alexidine HCl] | satisfied
CC(C)c1nc(N(C)S(C)(=O)=O)nc(-c2ccc(F)cc2)c1/C=C/[C@@H](O)C[C@@H](O)CC(=O)O | not satisfied

Is it true that viability at 10 µM reported for NC[C@H]1O[C@H](O[C@H]2[C@H](O)[C@@H](O[C@H]3O[C@H](CO)[C@@H](O)[C@H](N)[C@H]3O)[C@H](N)C[C@@H]2N)[C@H](N)[C@@H](O)[C@@H]1O is less than 70%?
not satisfied

Quick check: viability at 10 µM of CCn1cc(C(=O)O)c(=O)c2cc(F)c(N3CCNCC3)nc21 under 70%?
not satisfied

viability at 10 µM strictly < 70% for this compound? CC1(C)O[C@@H]2C[C@H]3[C@@H]4C[C@H](F)C5=CC(=O)C=C[C@]5(C)[C@@]4(F)[C@@H](O)C[C@]3(C)[C@]2(C(=O)CO)O1 [Fluocinolone acetonide (Flucort-N), Fluocinolone acetonide]
satisfied
